Target: UniProt P08238
Sequence (P08238 whole entry): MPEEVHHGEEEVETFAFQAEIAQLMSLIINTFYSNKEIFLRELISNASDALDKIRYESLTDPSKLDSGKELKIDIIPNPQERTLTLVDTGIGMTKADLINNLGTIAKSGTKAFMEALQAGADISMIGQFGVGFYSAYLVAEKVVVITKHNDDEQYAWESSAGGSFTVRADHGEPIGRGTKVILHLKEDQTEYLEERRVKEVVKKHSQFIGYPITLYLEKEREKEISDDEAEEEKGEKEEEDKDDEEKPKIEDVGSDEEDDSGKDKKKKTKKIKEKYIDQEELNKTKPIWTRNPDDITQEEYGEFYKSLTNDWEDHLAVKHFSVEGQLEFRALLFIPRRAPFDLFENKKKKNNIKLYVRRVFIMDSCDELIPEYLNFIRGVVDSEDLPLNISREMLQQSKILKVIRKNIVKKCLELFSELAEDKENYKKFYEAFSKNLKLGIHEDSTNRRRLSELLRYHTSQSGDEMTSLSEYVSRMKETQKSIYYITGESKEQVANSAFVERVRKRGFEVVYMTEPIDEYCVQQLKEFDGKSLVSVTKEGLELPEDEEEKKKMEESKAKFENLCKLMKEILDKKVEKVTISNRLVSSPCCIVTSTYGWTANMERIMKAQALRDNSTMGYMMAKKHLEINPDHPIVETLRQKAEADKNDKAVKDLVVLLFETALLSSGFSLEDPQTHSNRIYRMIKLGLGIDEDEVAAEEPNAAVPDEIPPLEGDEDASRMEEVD
Items are presented alongside their recorded IC50.

// solved cases for IC50 follow
CCNC(=O)c1cc2c(C(=NO)c3ccc(-n4cccc4)cc3)nc(N)nc2s1
< 10 µM
CCNC(=O)c1cc2c(C(=NO)c3cccc(Cl)c3)nc(N)nc2s1
< 10 µM
CCNC(=O)c1cc2c(C(=NOCCN3CCCC3)c3ccco3)nc(N)nc2s1
< 10 µM
CCNC(=O)c1cc2c(C(=NOCCN(CC)CC)c3ccc4c(c3)OCO4)nc(N)nc2s1
< 10 µM
CCNC(=O)c1cc2c(C(=NO)c3ccc4c(c3)CCO4)nc(N)nc2s1
< 10 µM
CCNC(=O)c1cc2c(C(=NO)c3cc4c(cc3Cl)OCO4)nc(N)nc2s1
< 10 µM
CCN(CC)CCON=C(c1ccc2c(c1)OCO2)c1nc(N)nc2sc(C(=O)NCC(F)(F)F)cc12
< 10 µM
CCNC(=O)c1cc2c(C(=NOCCN(CC)CC)c3cccc(OC)c3)nc(N)nc2s1
< 10 µM

Lookup: Recall and state the measured IC50 for CCNC(=O)c1cc2c(C(=NO)c3cccnc3)nc(N)nc2s1 .
Found: > 10 µM

Lookup: Recall and state the measured IC50 for CCNC(=O)c1cc2c(C(=NOCCN(CC)CC)c3ccco3)nc(N)nc2s1 [Example 41] .
Found: < 10 µM

Lookup: Recall and state the measured IC50 for CCNC(=O)c1cc2c(C(=NO)c3cccs3)nc(N)nc2s1 .
Found: < 10 µM

Lookup: Recall and state the measured IC50 for COCCNC(=O)c1cc2c(C(=NO)c3ccc4c(c3)OCO4)nc(N)nc2s1 .
Found: < 10 µM

Lookup: Recall and state the measured IC50 for CCNC(=O)c1cc2c(C(=NOCCN(CC)CC)c3ccc(N4CCCC4=O)cc3)nc(N)nc2s1 .
Found: > 10 µM

Lookup: Recall and state the measured IC50 for CCNC(=O)c1cc2c(C(=NOCCN(CC)CC)c3ccc4c(c3)OCCO4)nc(N)nc2s1 .
Found: < 10 µM

Lookup: Recall and state the measured IC50 for Nc1nc(C(=NO)c2ccc3c(c2)OCO3)c2cc(C(=O)NCC(F)(F)F)sc2n1 .
Found: < 10 µM

Lookup: Recall and state the measured IC50 for CCNC(=O)c1cc2c(C(=NO)c3ccccn3)nc(N)nc2s1 .
Found: < 10 µM

Lookup: Recall and state the measured IC50 for CCNC(=O)c1cc2c(C(=NOCCN(CC)CC)c3cccs3)nc(N)nc2s1 .
Found: > 10 µM

Lookup: Recall and state the measured IC50 for CCNC(=O)c1cc2c(C(=NO)c3ccc(N4CCCC4=O)cc3)nc(N)nc2s1 .
Found: < 10 µM

Lookup: Recall and state the measured IC50 for CCNC(=O)c1cc2c(C(=NO)c3ccc(Cl)cc3)nc(N)nc2s1 .
Found: < 10 µM

Lookup: Recall and state the measured IC50 for CCNC(=O)c1cc2c(C(=NOCC(=O)O)c3ccc4c(c3)OCO4)nc(N)nc2s1 .
Found: < 10 µM

Lookup: Recall and state the measured IC50 for CCNC(=O)c1cc2c(C(=NOCCN3CCCC3=O)c3cccs3)nc(N)nc2s1 .
Found: < 10 µM

Lookup: Recall and state the measured IC50 for CCNC(=O)c1cc2c(C(=NO)c3ccc(-n4cccn4)cc3)nc(N)nc2s1 .
Found: < 10 µM

Lookup: Recall and state the measured IC50 for COCCNC(=O)c1cc2c(C(=NOCCN3CCCC3=O)c3ccc4c(c3)OCO4)nc(N)nc2s1 (mixture of isomers) .
Found: < 10 µM

Lookup: Recall and state the measured IC50 for CCNC(=O)c1cc2c(C(=NO)c3ccco3)nc(N)nc2s1 .
Found: < 10 µM

Lookup: Recall and state the measured IC50 for CC(C)(C)NC(=O)c1cc2c(C(=NOCCN3CCCC3)c3ccc4c(c3)OCO4)nc(N)nc2s1 (mixture of isomers) .
Found: < 10 µM

Lookup: Recall and state the measured IC50 for CCNC(=O)c1cc2c(C(=NOCCN(CC)CC)c3ccco3)nc(N)nc2s1 [Example 37] .
Found: > 10 µM

Lookup: Recall and state the measured IC50 for CCNC(=O)c1cc2c(C(=NOC)c3ccc4c(c3)OCCN4C)nc(N)nc2s1 (mixture of isomers) .
Found: < 10 µM

Hello, the source for this data is patent US20090054421A1, in case you need it.
